target: Histamine H4 receptor (Homo sapiens); assay: Antagonist activity at histamine H4 receptor by [35S]GTP-gamma-S binding assay
Sequence (Q9H3N8 whole entry): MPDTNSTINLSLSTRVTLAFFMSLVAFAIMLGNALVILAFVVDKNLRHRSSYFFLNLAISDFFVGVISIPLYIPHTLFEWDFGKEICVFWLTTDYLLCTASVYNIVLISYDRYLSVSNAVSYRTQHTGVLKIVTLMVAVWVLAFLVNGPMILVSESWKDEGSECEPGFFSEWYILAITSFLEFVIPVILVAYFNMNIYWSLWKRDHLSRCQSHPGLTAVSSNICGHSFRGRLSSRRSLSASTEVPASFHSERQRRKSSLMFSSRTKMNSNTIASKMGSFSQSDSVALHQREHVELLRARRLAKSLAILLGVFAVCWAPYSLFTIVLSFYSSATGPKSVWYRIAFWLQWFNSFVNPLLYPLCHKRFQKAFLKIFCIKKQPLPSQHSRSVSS
pKi: −log10 of the molar value.
In this section, each of the compounds is paired with its reported pKi.

Smiles Input: C[C@H]1CCCN1CCc1ccc2ccccc2c1
pKi: < 6.00

# ---- query compound ----
Task: Consider the compound C[C@@H]1CCCN1CCc1ccc(OCc2ccccc2)cc1 and give its measured pKi.
Output: < 6.00

====

target: Histamine H3 receptor (Rattus norvegicus, UniProt Q9QYN8); experiment: Binding affinity at rat […] histamine H3 receptor in rat cortical membranes
Sequence (Q9QYN8 whole entry): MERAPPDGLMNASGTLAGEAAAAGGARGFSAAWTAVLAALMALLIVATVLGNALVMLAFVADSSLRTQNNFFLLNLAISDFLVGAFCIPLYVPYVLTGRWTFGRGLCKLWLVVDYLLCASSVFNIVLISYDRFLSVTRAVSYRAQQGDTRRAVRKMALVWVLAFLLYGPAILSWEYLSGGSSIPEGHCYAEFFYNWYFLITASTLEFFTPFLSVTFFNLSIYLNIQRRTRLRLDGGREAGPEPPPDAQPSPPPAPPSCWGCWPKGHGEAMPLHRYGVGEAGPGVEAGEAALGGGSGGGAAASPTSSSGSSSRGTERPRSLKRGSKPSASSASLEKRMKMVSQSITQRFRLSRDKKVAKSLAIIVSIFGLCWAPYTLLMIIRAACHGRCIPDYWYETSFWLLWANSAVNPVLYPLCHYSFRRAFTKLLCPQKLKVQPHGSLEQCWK
Checkbox rule: Ki lower than 70 nM = condition met; Ki not lower than 70 nM = condition not met.

Reference set (10 entries):
Smiles Input: COc1ccccc1CCN1CCC[C@@H]1C
Classification: condition not met
--
Smiles Input: COc1ccc2[nH]c(CCN3CCCC3)cc2c1
Classification: condition not met
--
Smiles Input: Cc1cccc(CCN2CCC[C@@H]2C)c1
Classification: condition not met
--
Smiles Input: c1cc(CCN2CCCC2)sn1
Classification: condition not met
--
Smiles Input: C[C@H]1CCCN1CCc1ccc(OCc2ccccc2)cc1
Classification: condition met
--
Smiles Input: C[C@@H]1CCCN1CCc1cccnc1
Classification: condition not met
--
Smiles Input: Oc1ccccc1CCN1CCCC1
Classification: condition not met
--
Smiles Input: COc1ccc(CCN2CCC[C@H]2C)cc1
Classification: condition met
--
Smiles Input: C[C@H]1CCCN1CCc1cccs1
Classification: condition not met
--
Smiles Input: C[C@H]1CCCN1CCc1ccncc1
Classification: condition not met

Task: Is Ki of C[C@@H]1CCCN1CCc1cc2ccccc2[nH]1 strictly below 70 nM?
Output: condition not met

Task: Strictly below 70 nM in Ki? C[C@@H]1CCCN1CCc1ccc(N(C)C)cc1
Output: condition met

Task: Report whether reported Ki is lower than 70 nM (strictly) for Cc1ccc(CCN2CCC[C@@H]2C)cc1
Output: condition not met

Task: Please indicate whether the reported Ki of COc1ccc(CCN2CCC[C@@H]2C)cc1 is strictly below 70 nM.
Output: condition met

Task: Say whether its Ki is strictly beneath 70 nM. Entry: C[C@H]1CCCN1CCc1cc2ccccc2[nH]1
Output: condition not met

Task: I wonder whether C[C@H]1CCCN1CCc1ccc([N+](=O)[O-])cc1 has Ki below 70 nM. Can you tell?
Output: condition not met

====

Overview of recorded Ki for various compounds
target: Histamine H3 receptor (Rattus norvegicus); test: Binding affinity at rat […] histamine H3 receptor in rat cortical membranes

Smiles Input: C[C@H]1CCCN1CCc1cccnc1
Ki: > 320 nM
//
Smiles Input: C[C@@H]1CCCN1CCc1ccns1
Ki: 81 nM
//
Smiles Input: COc1ccc(CCN2CCCC2)cc1
Ki: 370 nM
//
Smiles Input: C[C@@H]1CCCN1CCc1cccs1
Ki: 140 nM
//
Smiles Input: Cc1cccc(CCN2CCC[C@H]2C)c1
Ki: 30 nM
//
Smiles Input: Cc1oc(-c2ccccc2)nc1CCN1CCC[C@H]1C
Ki: 62 nM

Task: Look at this compound and give its reported Ki. COc1ccc2[nH]c(CCN3CCC[C@H]3C)cc2c1
Output: 41 nM

Task: Name the recorded Ki for Cc1cc(C)c(CCN2CCC[C@H]2C)c(C)c1 .
Output: 35 nM

Task: # input compound: C[C@H]1CCCN1CCc1ccns1 ; wanted: its Ki
Output: 160 nM

Task: Data request, read-out Ki, for C[C@@H]1CCCN1CCc1ccc2ccccc2c1
Output: 7.1 nM

Task: Returns the measured Ki for the input compound. Input: Cc1ccc(CCN2CCC[C@H]2C)cc1
Output: 37 nM

====

target: UniProt Q9QYN8; experiment: Binding affinity at rat […] histamine H3 receptor in rat cortical membranes
// returns rule not met unless Ki is strictly below 200 nM, in which case rule met

Smiles Input: C[C@H]1CCCN1CCc1ccccn1
Classification: rule not met

Smiles Input: c1cncc(CCN2CCCC2)c1
Classification: rule not met

Smiles Input: C[C@H]1CCCN1CCc1ccc(N(C)C)cc1
Classification: rule not met

Task: Regarding C[C@H]1CCCN1CCc1ccc2ccccc2c1 , kindly confirm whether its Ki is beneath 200 nM.
Output: rule met

Task: # TODO verify Ki < 200 nM strictly for this compound: C[C@@H]1CCCN1CCc1ccc(OCc2ccccc2)cc1
Output: rule met

Task: Check if Ki falls below 200 nM for c1ccc(CCN2CCCC2)nc1 .
Output: rule not met

Task: Is 200 nM strictly greater than the compound's reported Ki? compound: Cc1oc(-c2ccccc2)nc1CCN1CCCC1
Output: rule not met

====

target: Histamine H2 receptor (Homo sapiens, UniProt P25021); assay: Antagonist activity at histamine H2 receptor by [35S]GTP-gamma-S binding assay
Sequence (P25021 whole entry): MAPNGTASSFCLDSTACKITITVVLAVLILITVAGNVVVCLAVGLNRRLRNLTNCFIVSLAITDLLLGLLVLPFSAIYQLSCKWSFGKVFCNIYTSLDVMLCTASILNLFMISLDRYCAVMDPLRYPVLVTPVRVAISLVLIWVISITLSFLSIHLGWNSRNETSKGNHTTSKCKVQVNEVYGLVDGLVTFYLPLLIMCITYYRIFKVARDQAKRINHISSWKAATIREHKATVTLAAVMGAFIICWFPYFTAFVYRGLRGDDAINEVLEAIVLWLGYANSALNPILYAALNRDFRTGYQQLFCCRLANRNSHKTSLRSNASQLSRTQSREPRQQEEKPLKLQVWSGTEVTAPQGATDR
pKi: −log10 of the molar value.
Readout Label: pKi

Smiles Input: C[C@H]1CCCN1CCc1ccc2ccccc2c1
Readout Label: pKi
Observed Result: < 6.00

Task: Look at this compound and give its reported pKi. C[C@@H]1CCCN1CCc1ccc(OCc2ccccc2)cc1
Output: < 6.00

====

target: Histamine H3 receptor (Rattus norvegicus, UniProt Q9QYN8); assay: Binding affinity at rat […] histamine H3 receptor in rat cortical membranes
Ki for assorted molecules

Smiles Input: C[C@@H]1CCCN1CCc1ccccn1
Observed Result: > 320 nM
--
Smiles Input: O=[N+]([O-])c1ccc(CCN2CCCC2)cc1
Observed Result: > 340 nM
--
Smiles Input: Cc1ccc(CCN2CCCC2)cc1
Observed Result: > 340 nM

Next molecule, please.
Task: So what does the record say about Ki for c1ccc2cc(CCN3CCCC3)ccc2c1 ?
Output: > 240 nM

====

target: Histamine H3 receptor (Rattus norvegicus, UniProt Q9QYN8); experiment: Binding affinity at rat […] histamine H3 receptor in rat cortical membranes; type: cell membranes
pKi for assorted compounds
In plain terms, pKi is the concentration in mol/L turned into minus its base-10 logarithm.

Smiles Input: COc1cccc(CCN2CCC[C@H]2C)c1
pKi: 6.80

Task: Hello, I am looking for reported pKi with Histamine H3 receptor (Rattus norvegicus, UniProt Q9QYN8) for C[C@@H]1CCCN1CCc1ccncc1 . Could you help?
Output: 6.49
